We begin with a simple list: items and their reported abundance fitness.
B1: Myocardin-related transcription factor A, residues 341 to 383; numbered along this chain, Q969V6 (parent)
chain: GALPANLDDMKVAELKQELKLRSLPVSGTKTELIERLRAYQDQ

variants of: B1; assay: abundance fitness (aPCA) (normalised: wild type 0, dead -1); higher = more abundant; growth selection in yeast, the domain comes from the species named; conditions: Homo sapiens
ENDPOINT NAME: abundance fitness

mutant_id=R36T endpoint_name="abundance fitness" reported=-0.113
mutant_id=L21G endpoint_name="abundance fitness" reported=-0.067
mutant_id=L33Q endpoint_name="abundance fitness" reported=-0.128
mutant_id=L37C endpoint_name="abundance fitness" reported=-0.404
mutant_id=Y40C endpoint_name="abundance fitness" reported=0.127
mutant_id=K20Y endpoint_name="abundance fitness" reported=0.657
mutant_id=R36S endpoint_name="abundance fitness" reported=-0.291
mutant_id=R36A endpoint_name="abundance fitness" reported=-0.128
mutant_id=K20W endpoint_name="abundance fitness" reported=-0.372
mutant_id=E32Q endpoint_name="abundance fitness" reported=-0.038
mutant_id=L37G endpoint_name="abundance fitness" reported=-0.303
